Test system: 422866-222-R5-J1-PDC spheroid viability;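 also: spheroids exposed to agents for seven days before readout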
experiment description: Anticancer human tumor 422866-222-R5-J1-PDC patient-derived pancreatic adenocarcinoma cell line growth inhibition [CLK]
test context: second compound 0.316 µM; first compound 1 µM; hits give low values; spheroids with HUVEC and MSC
1 (yes) if viability, T/C is below 50%. 0 (no) if not; exact matches included in 0 (no).

Please review the entries below; each comes with its answer.
>  <compound>
O=c1[nH]cc(F)c(=O)[nH]1 + CN1CCN(c2cc(C(=O)Nc3cc4cc(-c5cnn(C)c5)ccc4cn3)ccn2)CC1

>  <assigned label>
0 (no)

$$$$
>  <compound>
CCN1CCN(Cc2ccc(Nc3ncc(F)c(-c4cc(F)c5nc(C)n(C(C)C)c5c4)n3)nc2)CC1 + CNC(=O)c1ccc(Nc2nc(OC3CCCC3)c3c(-c4ccc5nc(C)oc5c4)c[nH]c3n2)c(OC)c1

>  <assigned label>
0 (no)

$$$$
>  <compound>
C=CC(=O)N1CCN(c2nc(=O)n(-c3c(C)ccnc3C(C)C)c3nc(-c4c(O)cccc4F)c(F)cc23)C(C)C1 (stereo not given) + CN1CCN(c2cc(C(=O)Nc3cc4cc(-c5cnn(C)c5)ccc4cn3)ccn2)CC1

>  <assigned label>
1 (yes)

$$$$
>  <compound>
CCCS(=O)(=O)Nc1ccc(F)c(C(=O)c2c[nH]c3ncc(-c4ccc(Cl)cc4)cc23)c1F + CN1CCN(c2cc(C(=O)Nc3cc4cc(-c5cnn(C)c5)ccc4cn3)ccn2)CC1

>  <assigned label>
0 (no)

$$$$
>  <compound>
C=C(F)C(=O)N1CCN(c2nc(OCC3CCCN3C)nc3c2CCN(c2cccc4cccc(Cl)c24)C3)CC1CC#N (stereo not given) + CN1CCN(c2cc(C(=O)Nc3cc4cc(-c5cnn(C)c5)ccc4cn3)ccn2)CC1

>  <assigned label>
1 (yes)

$$$$

Q) Lab note: confirm whether the reported viability, T/C for this compound is below 50%, equality not counting. compound: CC(=O)O[C@H]1C(=O)[C@@]2(C)[C@H]([C@H](OC(=O)c3ccccc3)[C@]3(O)C[C@H](OC(=O)[C@H](O)[C@@H](NC(=O)c4ccccc4)c4ccccc4)C(C)=C1C3(C)C)[C@]1(OC(C)=O)CO[C@@H]1C[C@@H]2O + CNC(=O)c1ccc(Nc2nc(OC3CCCC3)c3c(-c4ccc5nc(C)oc5c4)c[nH]c3n2)c(OC)c1
A) 0 (no)

Q) Lab note: confirm whether the reported viability, T/C for this compound is below 50%, equality not counting. compound: CCN1CCN(Cc2ccc(Nc3ncc(F)c(-c4cc(F)c5nc(C)n(C(C)C)c5c4)n3)nc2)CC1 + CN1CCN(c2cc(C(=O)Nc3cc4cc(-c5cnn(C)c5)ccc4cn3)ccn2)CC1
A) 0 (no)

Q) Lab note: confirm whether the reported viability, T/C for this compound is below 50%, equality not counting. compound: CC(CO)NC(=O)c1cc(-c2ccc(Cl)cc2)nn(-c2cnn(C)c2)c1=O (stereo not given) + CN1CCN(c2cc(C(=O)Nc3cc4cc(-c5cnn(C)c5)ccc4cn3)ccn2)CC1
A) 0 (no)

Q) Lab note: confirm whether the reported viability, T/C for this compound is below 50%, equality not counting. compound: O=C(c1cc(Cc2n[nH]c(=O)c3ccccc23)ccc1F)N1CCN(C(=O)C2CC2)CC1 + CNC(=O)c1ccc(Nc2nc(OC3CCCC3)c3c(-c4ccc5nc(C)oc5c4)c[nH]c3n2)c(OC)c1
A) 0 (no)

Q) Lab note: confirm whether the reported viability, T/C for this compound is below 50%, equality not counting. compound: Nc1ccccc1NC(=O)c1ccc(CNC(=O)OCc2cccnc2)cc1 + CNC(=O)c1ccc(Nc2nc(OC3CCCC3)c3c(-c4ccc5nc(C)oc5c4)c[nH]c3n2)c(OC)c1
A) 0 (no)

Q) Lab note: confirm whether the reported viability, T/C for this compound is below 50%, equality not counting. compound: CC(Nc1ccc2c(c1)OCCn1cc(N3C(=O)OCC3C(F)F)nc1-2)C(N)=O (stereo not given) + CN1CCN(c2cc(C(=O)Nc3cc4cc(-c5cnn(C)c5)ccc4cn3)ccn2)CC1
A) 1 (yes)

Q) Lab note: confirm whether the reported viability, T/C for this compound is below 50%, equality not counting. compound: Nc1ccccc1NC(=O)c1ccc(CNC(=O)OCc2cccnc2)cc1 + CN1CCN(c2cc(C(=O)Nc3cc4cc(-c5cnn(C)c5)ccc4cn3)ccn2)CC1
A) 0 (no)

Q) Lab note: confirm whether the reported viability, T/C for this compound is below 50%, equality not counting. compound: C=CC(=O)N1CCN(c2nc(=O)n(-c3c(C)ccnc3C(C)C)c3nc(-c4c(O)cccc4F)c(F)cc23)C(C)C1 (stereo not given) + CNC(=O)c1ccc(Nc2nc(OC3CCCC3)c3c(-c4ccc5nc(C)oc5c4)c[nH]c3n2)c(OC)c1
A) 1 (yes)

Q) Lab note: confirm whether the reported viability, T/C for this compound is below 50%, equality not counting. compound: COc1cccc2c1C(=O)c1c(O)c3c(c(O)c1C2=O)CC(O)(C(=O)CO)CC3OC1CC(N)C(O)C(C)O1 (stereo not given) + CN1CCN(c2cc(C(=O)Nc3cc4cc(-c5cnn(C)c5)ccc4cn3)ccn2)CC1
A) 1 (yes)

Q) Lab note: confirm whether the reported viability, T/C for this compound is below 50%, equality not counting. compound: C=C(F)C(=O)N1CCN(c2nc(OCC3CCCN3C)nc3c2CCN(c2cccc4cccc(Cl)c24)C3)CC1CC#N (stereo not given) + CNC(=O)c1ccc(Nc2nc(OC3CCCC3)c3c(-c4ccc5nc(C)oc5c4)c[nH]c3n2)c(OC)c1
A) 1 (yes)

Q) Lab note: confirm whether the reported viability, T/C for this compound is below 50%, equality not counting. compound: COc1ccc([C@@H](O)c2cc(-c3ncnc4cc(N5CCOCC5)ccc34)c(F)cc2Cl)nn1 + CN1CCN(c2cc(C(=O)Nc3cc4cc(-c5cnn(C)c5)ccc4cn3)ccn2)CC1
A) 0 (no)

Q) Lab note: confirm whether the reported viability, T/C for this compound is below 50%, equality not counting. compound: CC1COCCN1c1cc(C2(S(C)(=N)=O)CC2)nc(-c2ccnc3[nH]ccc23)n1 (stereo not given) + CNC(=O)c1ccc(Nc2nc(OC3CCCC3)c3c(-c4ccc5nc(C)oc5c4)c[nH]c3n2)c(OC)c1
A) 0 (no)

Q) Lab note: confirm whether the reported viability, T/C for this compound is below 50%, equality not counting. compound: COC1C=CCC(C)C(C)S(=O)(=O)NC(=O)c2ccc3c(c2)N(CC2CCC21)CC1(CCCc2cc(Cl)ccc21)CO3 (stereo not given) + CN1CCN(c2cc(C(=O)Nc3cc4cc(-c5cnn(C)c5)ccc4cn3)ccn2)CC1
A) 0 (no)

Q) Lab note: confirm whether the reported viability, T/C for this compound is below 50%, equality not counting. compound: CCc1c2c(nc3ccc(O)cc13)-c1cc3c(c(=O)n1C2)COC(=O)[C@]3(O)CC + CNC(=O)c1ccc(Nc2nc(OC3CCCC3)c3c(-c4ccc5nc(C)oc5c4)c[nH]c3n2)c(OC)c1
A) 1 (yes)
